# credit: patent USRE48267E1

Target: T1, NPR-B (natriuretic peptide receptor B), murine, expressed endogenously on NIH3T3 cells (murine, UniProt Q6VVW5 17-1047)
T1 sequence (looked up): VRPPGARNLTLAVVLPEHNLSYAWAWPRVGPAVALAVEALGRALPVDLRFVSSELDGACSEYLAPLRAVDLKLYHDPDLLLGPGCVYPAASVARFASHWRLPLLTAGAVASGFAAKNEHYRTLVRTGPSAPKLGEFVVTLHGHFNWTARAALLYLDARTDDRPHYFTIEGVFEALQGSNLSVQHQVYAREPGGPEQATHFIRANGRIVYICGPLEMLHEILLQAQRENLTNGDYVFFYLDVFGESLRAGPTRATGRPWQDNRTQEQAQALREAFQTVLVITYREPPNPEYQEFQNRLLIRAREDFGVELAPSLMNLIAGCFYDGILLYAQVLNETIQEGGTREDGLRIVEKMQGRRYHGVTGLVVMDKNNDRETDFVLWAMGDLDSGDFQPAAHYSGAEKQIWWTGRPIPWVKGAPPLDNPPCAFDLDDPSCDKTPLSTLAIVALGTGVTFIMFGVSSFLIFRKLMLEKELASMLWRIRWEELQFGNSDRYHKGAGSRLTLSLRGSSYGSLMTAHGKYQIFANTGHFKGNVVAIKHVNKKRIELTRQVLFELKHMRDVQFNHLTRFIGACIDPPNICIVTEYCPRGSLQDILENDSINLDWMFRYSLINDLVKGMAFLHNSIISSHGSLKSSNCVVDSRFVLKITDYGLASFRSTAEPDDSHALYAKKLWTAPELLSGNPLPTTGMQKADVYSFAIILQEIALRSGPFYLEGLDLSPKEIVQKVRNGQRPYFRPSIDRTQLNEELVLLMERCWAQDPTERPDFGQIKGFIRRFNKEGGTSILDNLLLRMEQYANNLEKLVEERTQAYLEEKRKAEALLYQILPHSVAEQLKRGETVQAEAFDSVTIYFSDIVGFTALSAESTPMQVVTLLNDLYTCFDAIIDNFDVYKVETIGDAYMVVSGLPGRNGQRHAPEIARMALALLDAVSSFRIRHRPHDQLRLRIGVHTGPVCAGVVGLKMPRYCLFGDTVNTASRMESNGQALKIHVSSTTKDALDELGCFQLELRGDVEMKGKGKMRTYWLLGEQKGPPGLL
Assay: cell-based or functional assay
Where no end group is shown, it is not given here. [ ]: non-standard residue; d: D form. NMeL = CN[C@@H](CC(C)C)C(=O)O; Tle = CC(C)(C)[C@H](N)C(=O)O
Value kind: cGMP response rel. to 1 uM CNP22; 10 nM peptide, NIH3T3 cells

Entry GLSKGCFGLKLDRIGSMSG[NMeL]GC (ends and bridges not checked) [CNP22, N-methyl-L20] : reported cGMP response rel. to 1 uM CNP22; 10 nM peptide, NIH3T3 cells = ?
2 rel. to 1 uM CNP22 (100)

Item under review: GLSKGCXGLKLDRIGSMSGLGC (N-methyl-Phe at 7) [CNP22, N-methyl-F7 (methylated amide)] . Reported cGMP response rel. to 1 uM CNP22; 10 nM peptide, NIH3T3 cells?
2 rel. to 1 uM CNP22 (100)

State the recorded cGMP response rel. to 1 uM CNP22; 10 nM peptide, NIH3T3 cells for this entry: GLSKGCF[Tle]LKLDRIGSMSGLGC (ends and bridges not checked) [CNP22, t-butyl-G8]
2 rel. to 1 uM CNP22 (100)

Value lookup for cGMP response rel. to 1 uM CNP22; 10 nM peptide, NIH3T3 cells; key = GLSKGCFGLK[NMeL]DRIGSMSGLGC (ends and bridges not checked) [CNP22, N-methyl-L11]
10 rel. to 1 uM CNP22 (100)

Tell me the measured cGMP response rel. to 1 uM CNP22; 10 nM peptide, NIH3T3 cells of GLSKGCFGLKLDRIGSMSGLGC [CNP22 (wild-type human CNP-22)] , please.
46 rel. to 1 uM CNP22 (100)

GET /values?readout=cGMP response rel. to 1 uM CNP22; 10 nM peptide, NIH3T3 cells&item= GLSKGCFG[NMeL]K[NMeL]DRIGSMSGLGC (ends and bridges not checked) [CNP22, N-methyl-L9, N-methyl-L11]
1 rel. to 1 uM CNP22 (100)

Could you share which cGMP response rel. to 1 uM CNP22; 10 nM peptide, NIH3T3 cells value was measured for G[dL][dS][dK]G[dC][dF]G[dL][dK][dL][dD][dR][dI]G[dS][dM][dS]G[dL]G[dC] (ends and bridges not checked) [D-CNP22 (all D-amino acids)] ?
2 rel. to 1 uM CNP22 (100)

What cGMP response rel. to 1 uM CNP22; 10 nM peptide, NIH3T3 cells value was documented for this binder, GLSKGCFG[NMeL]KLDRIGSMSG[NMeL]GC (ends and bridges not checked) [CNP22, N-methyl-L9, N-methyl-L20] ?
1 rel. to 1 uM CNP22 (100)

Look up cGMP response rel. to 1 uM CNP22; 10 nM peptide, NIH3T3 cells: GLSKGCFG[NMeL]KLDRIGSMSGLGC (ends and bridges not checked) [CNP22, N-methyl-L9]
2 rel. to 1 uM CNP22 (100)

Name the recorded cGMP response rel. to 1 uM CNP22; 10 nM peptide, NIH3T3 cells for GLSKGCXGLKLDRIGSMSGLGC (D-Phe at 7) [CNP22, D-F7 (D-Phe)] .
2 rel. to 1 uM CNP22 (100)

Param item = GLSKGCFG[NMeL]K[NMeL]DRIGSMSG[NMeL]GC (ends and bridges not checked) [CNP22, N-methyl-L9, N-methyl-L11, N-methyl-L20] ; retrieve measured cGMP response rel. to 1 uM CNP22; 10 nM peptide, NIH3T3 cells.
18 rel. to 1 uM CNP22 (100)

# cGMP response rel. to 1 uM CNP22; 10 nM peptide, NIH3T3 cells lookup, item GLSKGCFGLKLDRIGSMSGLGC (ends and bridges not checked; also: backbone C=O of Cys6 reduced to CH2 (C6-CH2-NH isostere)) [CNP22, C6-CH2-NH (reduced carbonyl)]
6 rel. to 1 uM CNP22 (100)

For the binder GLSKGCXGLKLDRIGSMSGLGC (3-Cl-Phe at 7) [CNP22, 3-chloro-F7] , what cGMP response rel. to 1 uM CNP22; 10 nM peptide, NIH3T3 cells is on record?
17 rel. to 1 uM CNP22 (100)
